MEASURED ON: UniProt:P09186
Sequence (P09186 whole entry): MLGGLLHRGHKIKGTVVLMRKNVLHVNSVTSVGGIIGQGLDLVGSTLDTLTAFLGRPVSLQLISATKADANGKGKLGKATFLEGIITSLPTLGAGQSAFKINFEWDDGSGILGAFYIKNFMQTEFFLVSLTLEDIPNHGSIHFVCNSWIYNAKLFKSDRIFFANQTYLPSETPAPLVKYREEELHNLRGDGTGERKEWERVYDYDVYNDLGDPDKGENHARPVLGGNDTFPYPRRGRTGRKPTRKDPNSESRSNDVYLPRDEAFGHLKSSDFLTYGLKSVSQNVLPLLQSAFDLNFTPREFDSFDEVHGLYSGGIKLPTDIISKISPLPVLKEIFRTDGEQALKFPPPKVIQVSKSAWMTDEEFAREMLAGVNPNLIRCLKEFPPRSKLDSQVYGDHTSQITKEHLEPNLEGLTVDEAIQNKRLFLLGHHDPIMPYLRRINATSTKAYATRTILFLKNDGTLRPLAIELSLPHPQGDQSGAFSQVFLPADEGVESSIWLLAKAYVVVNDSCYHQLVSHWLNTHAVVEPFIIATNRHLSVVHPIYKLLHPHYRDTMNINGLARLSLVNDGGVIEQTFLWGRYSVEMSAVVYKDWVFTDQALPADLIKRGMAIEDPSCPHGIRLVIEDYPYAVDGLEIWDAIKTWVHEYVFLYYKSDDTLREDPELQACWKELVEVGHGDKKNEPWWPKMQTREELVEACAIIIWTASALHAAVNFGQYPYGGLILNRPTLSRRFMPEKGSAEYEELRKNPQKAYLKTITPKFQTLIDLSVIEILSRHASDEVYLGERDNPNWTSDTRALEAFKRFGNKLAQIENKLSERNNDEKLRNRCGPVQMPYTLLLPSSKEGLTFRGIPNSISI
ASSAY PROCEDURE: Soybean lipoxygenase (LOX-3) inhibition
Format: biochemical
MEASUREMENT CONDITIONS: after 5 min of incubation; sodium linoleate 100 μM, pH 9.0; read-out: IC50 Value on LOX-3
pIC50: −log10 of the molar value.
VALUE KIND: pIC50

1 = COc1ccc2cc(C(C)C(=O)OCc3cc(C(C)(C)C)c(O)c(C(C)(C)C)c3)ccc2c1 (stereo not shown)
2 = CC(C)(C)c1cc(C(=O)OCCc2ccccc2Nc2c(Cl)cccc2Cl)cc(C(C)(C)C)c1O
-- ask // which entry has the larger pIC50 value, 1 or 2 ? Return value: the label identifying the chosen record.
-- reply 1
